# system tested: SpMyo1
# protocol description: SPOT peptide array binding signal intensity (averaged, normalized) (arbitrary units (background-subtracted, floor 0; scale differs between SH3 domains)); higher = stronger binding of the SH3 domain to the peptide
reported endpoint: SPOT peptide array binding signal intensity
Form field (numeric): enter value without unit.

Query block: Tell me SPOT peptide array binding signal intensity reported for LKVTPGRRAPTISKI
Result block: 352

Query block: Indicate its recorded SPOT peptide array binding signal intensity; the binder in question is RRGPAPPPPPRASRP
Result block: 391

Query block: For the binder KTKQQKPAIPQKKSF , give its reported SPOT peptide array binding signal intensity.
Result block: 5
